- ASSAYED_SYSTEM: T1, Recombinant MBP-mutCALR Type 1 fusion protein (human)
- T1 construct: custom made at Cepter; also called recombinant mutCALR protein
- ASSAY_METHOD_TEXT: SPR, IgG captured, 1:1 fit, Exp. 2
ASSAY_ENDPOINT: kon (M⁻¹ s⁻¹)
Numbers only here, please. The scale is M⁻¹ s⁻¹.

[in] Which kon value is on record for anti-mutCALR antibody clone 140 (antibody, human IgG1, lambda, N297A, V domains shown, human IgG1 N297A variant of clone 15) VH: EVQLVQSGAEVKKPGASVKVSCKVSGYTLTELSMQWVRQAPGKGLEWMGGFDPDAGETMYAEKFQGRLTVTEDTSTDTVYMELSSLRSEDTAVYFCATSPGYDFFDYWGQGTLVTVSS VL: SYVLTQPPSVSVAPGKTARITCGGDNIGSKSVHWYQQKPGQAPVLVVYDDSDRPSGIPERFSGSNSGNTATLTISRVEAGDEADYYCQVWDSSNDLLIFGGGTKLTVLG ?
[out] 763000

[in] Try anti-mutCALR antibody clone 130 (antibody, human IgG1, lambda, N297A, V domains shown, human IgG1 N297A variant of clone 15) VH: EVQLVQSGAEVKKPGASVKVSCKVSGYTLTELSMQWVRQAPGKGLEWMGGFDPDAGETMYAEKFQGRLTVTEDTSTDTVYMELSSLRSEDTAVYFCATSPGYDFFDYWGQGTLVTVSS VL: SYELTQPPSVSVAPGKTARITCGGDNIGSKSVHWYQQKPGQAPVLVVYDDSDRPSGIPERFSGSNSGNTATLTINRVEAGDEADYYCQVWDSSNDLLIFGGGTKLTVLG next.
[out] 1.08e+06

[in] Then this binder: anti-mutCALR antibody clone 67 (antibody, human IgG1, lambda, N297A, V domains shown, human IgG1 N297A variant of clone 6) VH: EVQLVQSGAEVKKPGASVKVSCKVSGYTLTELSMQWVRQAPGKGLEWMGGFDPDSGETMYAEKFQGRLTVTEDTSTDTVYMELRSLTSEDTALYFCATSPGYDFFDYWGQGTLVTVSS VL: SYVLTQPPSVSVAPGKTARITCTGTSSDVGGYNYVSWYQQKPGQAPVLVVYEVSNRPSGIPERFSGSNSGNTATLTISRVEAGDEADYYCQVWDSSNDLLIFGGGTKLTVLG
[out] 3.05e+06

[in] Entry to check: anti-mutCALR antibody clone 135 (antibody, human IgG1, lambda, N297A, V domains shown, human IgG1 N297A variant of clone 15) VH: EVQLVQSGAEVKKPGASVKVSCKVSGYTLTELSMQWVRQAPGKGLEWMGGFDPDAGETMYAEKFQGRLTVTEDTSTDTVYMELRSLTSEDTALYFCATSPGYDFFDYWGQGTLVTVSS VL: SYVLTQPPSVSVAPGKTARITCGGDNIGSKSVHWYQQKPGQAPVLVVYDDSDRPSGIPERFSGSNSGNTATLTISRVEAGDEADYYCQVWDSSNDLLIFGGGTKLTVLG
[out] 991000
